Each entry below lists one item and its recorded log10 of IC50 value.
# Target Or System: UniProt P06737
# Sequence (P06737 whole entry): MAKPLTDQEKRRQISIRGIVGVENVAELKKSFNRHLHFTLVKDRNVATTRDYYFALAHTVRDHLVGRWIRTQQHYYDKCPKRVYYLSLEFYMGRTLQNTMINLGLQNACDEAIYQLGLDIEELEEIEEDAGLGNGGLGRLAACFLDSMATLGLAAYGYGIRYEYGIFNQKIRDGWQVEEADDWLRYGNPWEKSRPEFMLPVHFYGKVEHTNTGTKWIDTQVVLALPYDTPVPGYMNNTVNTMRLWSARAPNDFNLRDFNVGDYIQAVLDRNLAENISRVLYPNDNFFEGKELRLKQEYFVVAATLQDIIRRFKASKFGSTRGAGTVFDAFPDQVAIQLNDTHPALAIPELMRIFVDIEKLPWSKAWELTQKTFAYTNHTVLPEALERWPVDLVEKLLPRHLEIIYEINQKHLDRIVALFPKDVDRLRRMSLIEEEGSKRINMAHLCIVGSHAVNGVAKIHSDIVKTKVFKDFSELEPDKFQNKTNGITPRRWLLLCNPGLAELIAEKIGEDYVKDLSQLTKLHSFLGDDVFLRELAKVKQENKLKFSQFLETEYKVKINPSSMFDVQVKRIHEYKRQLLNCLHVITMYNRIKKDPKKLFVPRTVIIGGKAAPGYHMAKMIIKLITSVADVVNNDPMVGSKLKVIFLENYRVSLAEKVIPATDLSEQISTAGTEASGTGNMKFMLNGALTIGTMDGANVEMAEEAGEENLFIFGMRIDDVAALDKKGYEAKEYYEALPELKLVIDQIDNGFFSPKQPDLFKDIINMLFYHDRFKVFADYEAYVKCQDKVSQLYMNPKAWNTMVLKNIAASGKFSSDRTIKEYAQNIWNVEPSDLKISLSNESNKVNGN
# Protocol: Inhibitory concentration against glycogen phosphorylase
Quantity Kind: log10 of IC50 (log10 of the value in nM)

>  <Compound>
COCC(O)CN(C(=O)CNC(=O)c1cc2cc(Cl)ccc2[nH]1)C1CCCC1 (stereo not given)

>  <Quantity Kind>
log10 of IC50

>  <Numeric Readout>
2.00

$$$$
>  <Compound>
CN(C(=O)CNC(=O)c1cc2cc(Cl)ccc2[nH]1)C1CCN(C=O)C1 (stereo not given)

>  <Quantity Kind>
log10 of IC50

>  <Numeric Readout>
2.40

$$$$
>  <Compound>
CN(C(=O)CNC(=O)c1cc2cc(Cl)ccc2[nH]1)c1ccccc1

>  <Quantity Kind>
log10 of IC50

>  <Numeric Readout>
2.32

$$$$
>  <Compound>
CC(C)OCCN(C(=O)CNC(=O)c1cc2cc(Cl)ccc2[nH]1)C1CCCC1

>  <Quantity Kind>
log10 of IC50

>  <Numeric Readout>
3.04

$$$$
>  <Compound>
CC(O)CN(C(=O)CNC(=O)c1cc2cc(Cl)ccc2[nH]1)C1CCCC1 (stereo not given)

>  <Quantity Kind>
log10 of IC50

>  <Numeric Readout>
1.20

$$$$
>  <Compound>
O=C(NCC(=O)N(CCO)Cc1ncc[nH]1)c1cc2cc(Cl)ccc2[nH]1

>  <Quantity Kind>
log10 of IC50

>  <Numeric Readout>
2.63

$$$$
>  <Compound>
CC(C)N(CCO)C(=O)CNC(=O)c1cc2cc(Cl)ccc2[nH]1

>  <Quantity Kind>
log10 of IC50

>  <Numeric Readout>
2.32

$$$$
>  <Compound>
CN(C(=O)CNC(=O)c1cc2cc(Cl)ccc2[nH]1)c1cccnc1

>  <Quantity Kind>
log10 of IC50

>  <Numeric Readout>
2.52

$$$$
>  <Compound>
O=C(NCC(=O)N(CCO)CC1CC1)c1cc2cc(Cl)ccc2[nH]1

>  <Quantity Kind>
log10 of IC50

>  <Numeric Readout>
2.20

$$$$
>  <Compound>
O=C(NCC(=O)N(CCN1CCOCC1)C1CCCC1)c1cc2cc(Cl)ccc2[nH]1

>  <Quantity Kind>
log10 of IC50

>  <Numeric Readout>
3.18

$$$$

----------
# System: SK-HEP1
# Protocol: Inhibitory concentration against human SK-Hep-1 cells (hepatoma cell line)
# Format: functional, cell-based
Quantity Kind: log10(IC50) (log10 of the value in nM)

>  <Compound>
CC(C)CN(C)C(=O)CNC(=O)c1cc2cc(Cl)ccc2[nH]1

>  <Target Or System>
SK-HEP1

>  <Numeric Readout>
2.79

$$$$
>  <Compound>
CC(CCO)N(C(=O)CNC(=O)c1cc2cc(Cl)ccc2[nH]1)C1CCCC1 (stereo unspecified)

>  <Target Or System>
SK-HEP1

>  <Numeric Readout>
3.15

$$$$
>  <Compound>
CCCCN(CCO)C(=O)CNC(=O)c1cc2cc(Cl)ccc2[nH]1

>  <Target Or System>
SK-HEP1

>  <Numeric Readout>
3.00

$$$$
>  <Compound>
C=CCN(C(=O)CNC(=O)c1cc2cc(Cl)ccc2[nH]1)C1CCCC1

>  <Target Or System>
SK-HEP1

>  <Numeric Readout>
2.95

$$$$
>  <Compound>
O=C(NCC(=O)N(CCO)C1CCCC1)c1cc2cc(Cl)ccc2[nH]1

>  <Target Or System>
SK-HEP1

>  <Numeric Readout>
2.15

$$$$
>  <Compound>
O=C(NCC(=O)N(CCO)CC1CC1)c1cc2cc(Cl)ccc2[nH]1

>  <Target Or System>
SK-HEP1

>  <Numeric Readout>
3.18

$$$$
>  <Compound>
O=C(NCC(=O)N(CCO)C1CCCCCCC1)c1cc2cc(Cl)ccc2[nH]1

>  <Target Or System>
SK-HEP1

>  <Numeric Readout>
4.08

$$$$
>  <Compound>
CC(C)N(CCO)C(=O)CNC(=O)c1cc2cc(Cl)ccc2[nH]1

>  <Target Or System>
SK-HEP1

>  <Numeric Readout>
3.53

$$$$
>  <Compound>
O=C(NCC(=O)N(CCO)Cc1ccco1)c1cc2cc(Cl)ccc2[nH]1

>  <Target Or System>
SK-HEP1

>  <Numeric Readout>
3.18

$$$$
>  <Compound>
CN(C(=O)CNC(=O)c1cc2cc(Cl)ccc2[nH]1)C1CCN(C=O)C1 (stereo unspecified)

>  <Target Or System>
SK-HEP1

>  <Numeric Readout>
4.28

$$$$
